target: UniProt P05164; assay: MPO Chlorination Assay (APF Assay); type: biochemical; settings: potency range class
Listing: IC50 of selected compounds

Example compounds with recorded IC50:
// map Nc1cc(C(CCN[C@@H]2CC[C@@H](Cc3ccccc3)C2)c2cnn(CCc3cccc(O)c3)c2)c2nn[nH]c2n1 (stereo partly drawn) to recorded IC50 (system: UniProt P05164) 101 to 999 nM

Also Nc1cc(C(CCNC23CCC(c4ccccc4)(CC2)[C@H](O)C3)c2cnn(Cc3cccc(O)c3)c2)c2nn[nH]c2n1 (stereo partly drawn) , if possible. 1 to 100 nM

Also Nc1cc(C(CCN[C@H]2CC[C@H](c3ccccc3)CC2)c2cc[nH]c(=O)c2)c2nn[nH]c2n1 (stereo partly drawn) , if possible. 1 to 100 nM

New cases:
// map Nc1cc(C(CCN[C@H]2CC[C@H](c3ccccc3)CC2)c2cnn(C3CCC3(F)F)c2)c2nn[nH]c2n1 (stereo partly drawn) to recorded IC50 (system: UniProt P05164) 1 to 100 nM

Also Nc1cc(C(CCNCc2cccc(CO)c2)c2cnn(Cc3cccc(O)c3)c2)c2nn[nH]c2n1 (stereo not drawn) , if possible. 101 to 999 nM

Also CCCC(c1cnn(Cc2ccc3c(c2)CCNC3)c1)c1cc(N)nc2[nH]nnc12 (stereo not drawn) , if possible. 101 to 999 nM

Also Nc1cc(C(CCNC23CCC(c4ccccc4)(CC2)CC3)c2cnn(CCc3cccc(O)c3)c2)c2nn[nH]c2n1 (stereo not drawn) , if possible. 1 to 100 nM

Also Nc1cc(C(CCN[C@H]2CC[C@H](c3ccccc3)CC2)c2cn[nH]c2)c2nn[nH]c2n1 (stereo partly drawn) , if possible. 101 to 999 nM

---

Listing: pIC50 of selected molecules
target: myeloperoxidase (Homo sapiens (Human), UniProt P05164); assay: MPO Chlorination Assay (APF Assay); assay type: biochemical; details: potency range class
Sequence (P05164 49-745): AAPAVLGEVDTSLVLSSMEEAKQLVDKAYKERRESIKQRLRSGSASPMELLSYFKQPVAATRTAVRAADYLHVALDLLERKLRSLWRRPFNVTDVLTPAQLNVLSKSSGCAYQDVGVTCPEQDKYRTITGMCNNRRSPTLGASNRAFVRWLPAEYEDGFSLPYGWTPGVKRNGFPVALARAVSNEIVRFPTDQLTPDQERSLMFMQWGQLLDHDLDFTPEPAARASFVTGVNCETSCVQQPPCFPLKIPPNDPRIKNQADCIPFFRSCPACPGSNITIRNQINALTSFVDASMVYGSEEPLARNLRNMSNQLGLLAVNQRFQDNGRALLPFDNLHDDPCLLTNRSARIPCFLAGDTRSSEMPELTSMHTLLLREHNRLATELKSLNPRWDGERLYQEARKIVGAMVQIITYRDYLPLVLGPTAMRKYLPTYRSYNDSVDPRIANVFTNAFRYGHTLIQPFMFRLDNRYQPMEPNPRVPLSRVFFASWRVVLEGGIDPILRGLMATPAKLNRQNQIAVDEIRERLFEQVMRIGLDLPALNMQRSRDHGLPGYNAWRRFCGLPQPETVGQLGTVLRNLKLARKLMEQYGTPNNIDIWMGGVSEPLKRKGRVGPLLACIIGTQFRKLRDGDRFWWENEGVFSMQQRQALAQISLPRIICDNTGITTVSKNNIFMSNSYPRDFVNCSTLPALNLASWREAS
pIC50: −log10 of the molar value.

Example molecules with recorded pIC50:
// map Nc1cc(C(CCCc2ccc3ccccc3c2)c2cnn(Cc3ccc4c(c3)CCNC4)c2)c2nn[nH]c2n1 (stereo not drawn) to recorded pIC50 (system: myeloperoxidase (Homo sapiens (Human), UniProt P05164)) 7.00 to 9.00

Also CCC(c1cnn(Cc2cccc(O)c2)c1)c1cc(N)nc2[nH]nnc12 (stereo not drawn) , if possible. 6.00 to 7.00

Also Nc1cc(C(CCN[C@H]2CC[C@H](c3ccccc3)CC2)c2cccnc2)c2nn[nH]c2n1 (stereo partly drawn) , if possible. 7.00 to 9.00

Also Nc1cc(C(CCN[C@H]2CC[C@H](c3ccccc3)CC2)c2cnn(Cc3cc(F)cc(F)c3)c2)c2nn[nH]c2n1 (stereo partly drawn) , if possible. 7.00 to 9.00

Also CC(c1cnn(Cc2ccc3c(c2)CCNC3)c1)c1cc(N)nc2[nH]nnc12 (stereo not drawn) , if possible. 6.00 to 7.00

New cases:
// map Nc1cc(C(CCN[C@H]2CC[C@H](c3ccccc3)CC2)c2cnn(C3CC3)c2)c2nn[nH]c2n1 (stereo partly drawn) to recorded pIC50 (system: myeloperoxidase (Homo sapiens (Human), UniProt P05164)) 6.00 to 7.00

Also Cn1cc(C(CCNCc2ccccc2)c2cc(N)nc3[nH]nnc23)cn1 (stereo not drawn) , if possible. 5.00 to 6.00

Also Nc1cc(C(CCCC2CCc3ccccc32)c2cnn(Cc3ccc4c(c3)CCNC4)c2)c2nn[nH]c2n1 (stereo not drawn) , if possible. 6.00 to 7.00

Also Nc1cc(C(CCN[C@H]2CC[C@H](c3ccccc3)CC2)c2cnn(CCC(F)(F)F)c2)c2nn[nH]c2n1 (stereo partly drawn) , if possible. 7.00 to 9.00

Also Nc1cc(C(CCNC23CCC(c4ccccc4)(CC2)[C@@H](O)C3)c2cnn(Cc3cccc(O)c3)c2)c2nn[nH]c2n1 (stereo partly drawn) , if possible. 7.00 to 9.00

Also Nc1cc(C(CCO)c2cnn(Cc3cccc(OC4CCC(N)C4)c3)c2)c2nn[nH]c2n1 (stereo not drawn) , if possible. 6.00 to 7.00

Also Nc1cc(C(CCOc2ccccc2)c2cnn(Cc3ccc4c(c3)CCNC4)c2)c2nn[nH]c2n1 (stereo not drawn) , if possible. 6.00 to 7.00

Also Nc1cc(C(CCN[C@H]2CC[C@H](c3ccccc3)CC2)c2cnn(Cc3ccccc3)c2)c2nn[nH]c2n1 (stereo partly drawn) , if possible. 7.00 to 9.00

Also Nc1cc(C(CCN[C@H]2CC[C@H](c3ccccc3)CC2)c2cnn(Cc3cccc(C(F)(F)F)c3)c2)c2nn[nH]c2n1 (stereo partly drawn) , if possible. 7.00 to 9.00

Also Nc1cc(C(CCN[C@@H]2C[C@@H](Cc3ccccc3)[C@H](O)C2)c2cnn(Cc3cccc(O)c3)c2)c2nn[nH]c2n1 (stereo partly drawn) , if possible. 7.00 to 9.00
